Measured values drawn from patent US20150210768A1 for this set.

target: TLR4/MD2 (Homo sapiens, UniProt O00206); assay: Immunoprecipitation of peptides on bead-coupled TLR4/MD2, eluates analysed by MALDI-TOF mass spectrometry; format: binding; parameters: purchased R&D SYSTEMS; conditions: bead-coupled his-tagged rhTLR4/MD2, 1 mM Calcium, 3 h at 4° C.; MALDI-TOF detection; FIG. 3B, 4, 5
Sequence (O00206 24-631 limits assumed): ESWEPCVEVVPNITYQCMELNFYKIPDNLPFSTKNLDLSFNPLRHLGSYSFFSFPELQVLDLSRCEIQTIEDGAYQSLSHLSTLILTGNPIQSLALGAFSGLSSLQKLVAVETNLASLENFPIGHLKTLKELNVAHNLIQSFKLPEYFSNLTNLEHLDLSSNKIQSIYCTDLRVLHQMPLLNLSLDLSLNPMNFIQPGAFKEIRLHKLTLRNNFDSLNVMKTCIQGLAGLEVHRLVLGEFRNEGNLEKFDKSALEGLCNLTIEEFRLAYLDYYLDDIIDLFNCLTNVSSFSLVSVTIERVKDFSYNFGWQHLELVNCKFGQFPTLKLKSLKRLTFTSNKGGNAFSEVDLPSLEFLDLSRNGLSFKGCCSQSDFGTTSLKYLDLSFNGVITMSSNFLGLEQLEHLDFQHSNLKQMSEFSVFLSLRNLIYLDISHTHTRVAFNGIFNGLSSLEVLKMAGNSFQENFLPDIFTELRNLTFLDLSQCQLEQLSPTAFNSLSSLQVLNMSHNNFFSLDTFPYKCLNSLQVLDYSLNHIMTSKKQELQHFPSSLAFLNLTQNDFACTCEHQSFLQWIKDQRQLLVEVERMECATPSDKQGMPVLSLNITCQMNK
Sequence (Q9Y6Y9 17-160 partner limits assumed): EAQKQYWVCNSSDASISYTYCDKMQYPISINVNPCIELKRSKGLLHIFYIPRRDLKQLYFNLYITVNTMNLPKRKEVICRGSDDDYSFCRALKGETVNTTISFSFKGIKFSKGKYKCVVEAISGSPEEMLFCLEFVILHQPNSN
Measured Parameter: binding to TLR4/MD2

63-79: synthetic peptide, positions 63-79 of S100A9, complete C-terminal EF hand, MEDLDTNADKQLSFEEF ... able to bind to TLR4/MD2
55-71: synthetic peptide, positions 55-71 of human S100A8, complete C-terminal EF hand, FKELDINTDGAVNFQEF ... able to bind to TLR4/MD2
